# conditions: buffer; pH 7.4; 200.0 µM
property-name: solubility kinetic

Give a short answer stating reported solubility kinetic for C=CCN(CC=C)C(=S)Nc1ccc(OC)c(OC)c1 .
> 43.9 µg/mL

Give a short answer stating reported solubility kinetic for CN1CCCN(C(=O)CNC(=O)Cc2ccccc2)CC1 .
> 43.4 µg/mL

Give a short answer stating reported solubility kinetic for CC(CN1CCCC1)OC(=O)c1ccc(Cl)cc1Cl.Cl (stereo unspecified) .
> 50.8 µg/mL

Give a short answer stating reported solubility kinetic for COCCCNC(=O)C(=O)NC1CCCCC1C (stereo unspecified) .
> 38.5 µg/mL

Give a short answer stating reported solubility kinetic for c1ccc2nc3c(nc2c1)CCCC3 .
> 27.6 µg/mL

Give a short answer stating reported solubility kinetic for Cc1cc(C(=O)CCC(=O)Nc2ncccc2O)c(C)s1 .
> 45.7 µg/mL

Give a short answer stating reported solubility kinetic for CSc1ccccc1NC(=O)C1CCCN(S(C)(=O)=O)C1 (stereo unspecified) .
> 49.3 µg/mL

Give a short answer stating reported solubility kinetic for CCCCn1c(O)c(C(=O)/C=C/c2ccc3c(c2)OCO3)c(=O)[nH]c1=O .
> 53.8 µg/mL

Give a short answer stating reported solubility kinetic for CCN(Cc1ccccc1)C(=O)CN1C(=O)c2ccccc2C1=O .
> 48.4 µg/mL

Give a short answer stating reported solubility kinetic for Cc1cc(C)c(S(=O)(=O)N2CCCCC2C(=O)O)c(C)c1 (stereo unspecified) .
> 46.7 µg/mL

Give a short answer stating reported solubility kinetic for Cc1cc(C)c(C#N)c(N)n1 .
> 22.1 µg/mL

Give a short answer stating reported solubility kinetic for CC(C)C(=O)Nc1nnc(SCC(=O)NCC2CCCO2)s1 (stereo unspecified) .
> 51.7 µg/mL

Give a short answer stating reported solubility kinetic for CC(C)C(=O)Nc1ccc(S(=O)(=O)Nc2ccccn2)cc1 .
> 47.9 µg/mL

Give a short answer stating reported solubility kinetic for C=CCn1c(O)c(C(C)=NCC2CCCO2)c(=O)[nH]c1=O (stereo unspecified) .
> 44 µg/mL

Give a short answer stating reported solubility kinetic for CC(C)(C)c1csc(CS(=O)(=O)c2ccccn2)n1 .
> 44.5 µg/mL

Give a short answer stating reported solubility kinetic for Nc1ncnc2c1ncn2[C@@H]1O[C@H](CO)[C@@H](O)[C@@H]1O .
> 40.1 µg/mL

Give a short answer stating reported solubility kinetic for O=C(O)c1ccc2c(c1)C(=O)N(c1ccccc1-c1ccccc1)C2=O .
> 51.5 µg/mL

Give a short answer stating reported solubility kinetic for O=C(NCCc1ccc(Cl)cc1)c1ccc2nc[nH]c2c1 .
> 45 µg/mL

Give a short answer stating reported solubility kinetic for Cl.O=C(COc1ccc(Br)cc1)OCCN1CCCCC1 .
> 56.8 µg/mL

Give a short answer stating reported solubility kinetic for COc1ccc(Nc2nc(N)nc(CN3CCC(C)CC3)n2)cc1 .
> 49.3 µg/mL

Give a short answer stating reported solubility kinetic for O=C(O)C1C2CCC(C2)C1C(=O)NCCc1ccc(F)cc1 (stereo unspecified) .
> 45.8 µg/mL

---

# conditions: buffer; pH 7.4; 200.0 µM
Give solubility kinetic for every item shown.

Give a short answer stating reported solubility kinetic for CN1CCN(C(=O)CNC(=O)Cc2ccc(Cl)cc2)CC1 .
> 0.0465 mg/mL

Give a short answer stating reported solubility kinetic for Cc1cc(C)cc(N2C(=O)C3CCCN3C2=S)c1 (stereo not drawn) .
> 0.0391 mg/mL

Give a short answer stating reported solubility kinetic for CCCNC(=O)Nc1cccc(C(=O)OC)c1 .
> 0.0354 mg/mL

Give a short answer stating reported solubility kinetic for Clc1ccc(-c2csc(-c3ccno3)n2)cc1 .
< 0.0003 mg/mL

Give a short answer stating reported solubility kinetic for Cc1ccccc1OCC(=O)OCC(=O)NCc1ccco1 .
> 0.0455 mg/mL

Give a short answer stating reported solubility kinetic for C#CCn1c(CCNC(=O)c2ccco2)nc2ccccc21 .
> 0.044 mg/mL

Give a short answer stating reported solubility kinetic for Cc1cc(C(=O)NCc2ccco2)sc1C .
> 0.0353 mg/mL

Give a short answer stating reported solubility kinetic for CCOc1ccc(NC(=S)N2CCCC2)cc1 .
> 0.0376 mg/mL

Give a short answer stating reported solubility kinetic for CC1CCCCC1NC(=O)CNC(=O)c1cccs1 (stereo not drawn) .
> 0.0421 mg/mL

Give a short answer stating reported solubility kinetic for Cc1noc(C)c1COc1ncnc2ccccc12 .
> 0.0383 mg/mL

Give a short answer stating reported solubility kinetic for COc1cccc(S(=O)(=O)NCC(=O)N2CCCCCC2)c1 .
> 0.049 mg/mL

Give a short answer stating reported solubility kinetic for Cc1nnc(SCC(=O)O)s1 .
> 0.0285 mg/mL

Give a short answer stating reported solubility kinetic for CCOc1ccc(NC(=O)c2cc3ccccc3cc2OC)cc1 .
< 0.0007 mg/mL

Reference for the values: PubChem BioAssay AID1996
